Entry source: ChEMBL document CHEMBL1201862

Tested on: SN12C
Assay: NCI tumour cell line growth inhibition, 48 h
Active and inactive are the calls of the source. No stated cut-off is given here; in the data, active = GI50 up to about 1.1 µM and inactive = higher.
EXPERIMENTAL ENDPOINT: GI50

*Q* # query: GI50 | item O=C(Nc1ccc([N+](=O)[O-])cc1Cl)c1cccc([N+](=O)[O-])c1O | system: SN12C
*A* 1.48 µM (inactive)

*Q* # query: GI50 | item CCCCCCCCOCC(COC(=O)CCCCCCC)OC(=O)CCCCCCC (centres undefined) | system: SN12C
*A* > 100 µM (inactive)

*Q* # query: GI50 | item CC[C@H](CC[C@@H](C)[C@H]1CC[C@H]2[C@@H]3CC=C4C[C@@H](O)CC[C@]4(C)[C@H]3CC[C@]12C)C(C)C [BETA-SITOSTEROL] | system: SN12C
*A* > 100 µM (inactive)

*Q* # query: GI50 | item CC(=O)c1cccc(NC(=O)C(=O)Nn2c(N)nnc2N)c1 | system: SN12C
*A* > 100 µM (inactive)

*Q* # query: GI50 | item O=C(OC1OC2COC(=O)c3cc(O)c(O)c(O)c3-c3c(cc(O)c(O)c3O)C(=O)OC3C2OC(=O)[C@@]24CC(=O)[C@@](O)(OC25C(=O)O[C@H]2[C@@H](O)CO[C@@]25O)C2(O)Oc5c(O)c(O)cc(c5C24)C(=O)OC13)c1cc(O)c(O)c(O)c1 (some centres undefined) | system: SN12C
*A* 56 µM (inactive)

*Q* # query: GI50 | item O=[N+]([O-])c1ccccc1S(=O)(=O)c1cc(Cl)cc2c1NCCC2 | system: SN12C
*A* 90.6 µM (inactive)

*Q* # query: GI50 | item COc1cc2c(cc1OC)-c1cc3ccc(OC)c(OC)c3c[n+]1CC2 [PALMATINE CHLORIDE] | system: SN12C
*A* > 100 µM (inactive)

*Q* # query: GI50 | item CCOC(=O)/C=C/[C@H](O[Si](CC)(CC)CC)C(C)(C)C | system: SN12C
*A* 39 µM (inactive)

*Q* # query: GI50 | item N#CCc1nc2cc(C(F)(F)F)ccc2s1 | system: SN12C
*A* 45.5 µM (inactive)

*Q* # query: GI50 | item O=C(c1cccnc1)N1N=C(c2ccc(Cl)cc2)CC1(O)c1cc(F)c(Cl)cc1Cl (centres undefined) | system: SN12C
*A* 14.1 µM (inactive)

*Q* # query: GI50 | item CCC(C)C1(O)OC2CC3(C)OC(=CC3=O)/C(C)=C\C3OC(=O)C1(C)C32 (centres undefined) | system: SN12C
*A* 11.8 µM (inactive)

*Q* # query: GI50 | item CCN(CC)C(=S)Nc1ccc(-c2cc3ccc(O)cc3oc2=O)cc1 | system: SN12C
*A* 27 µM (inactive)

*Q* # query: GI50 | item O=C(OC1CCC(=C2SCCCS2)[C@H]1C1SCCCS1)c1ccccc1 (some centres undefined) | system: SN12C
*A* > 100 µM (inactive)

*Q* # query: GI50 | item COC(=O)CNC(=O)CCSc1nnc(COc2ccc(Cl)cc2)n1-c1ccccc1 | system: SN12C
*A* 20.3 µM (inactive)

*Q* # query: GI50 | item CC1(C)S[C@H](CN)N[C@H]1C(=O)OC(c1ccccc1)c1ccccc1 | system: SN12C
*A* 32.4 µM (inactive)

*Q* # query: GI50 | item Oc1[nH]c(Nc2ccc(Cl)c(C(F)(F)F)c2)nc2ncnc1-2 | system: SN12C
*A* 32.5 µM (inactive)

*Q* # query: GI50 | item COc1cc(O)ccc1C(=S)SC | system: SN12C
*A* 1.45 µM (inactive)

*Q* # query: GI50 | item Cc1cn(C2OC(C)(CO)C(O)C2O)c(=O)[nH]c1=O (centres undefined) | system: SN12C
*A* > 100 µM (inactive)

*Q* # query: GI50 | item C[C@]12CCC3c4ccc(O)cc4CC[C@H]3C1CC(=O)N(N)C2=O (some centres undefined) | system: SN12C
*A* > 100 µM (inactive)
